The reported measurements were obtained from patent US8575203B2.

- System tested: Recombinant human PDK1 enzyme (aa 52-556) (Homo sapiens (Human), UniProt O15530)
- Sequence (O15530 52-556): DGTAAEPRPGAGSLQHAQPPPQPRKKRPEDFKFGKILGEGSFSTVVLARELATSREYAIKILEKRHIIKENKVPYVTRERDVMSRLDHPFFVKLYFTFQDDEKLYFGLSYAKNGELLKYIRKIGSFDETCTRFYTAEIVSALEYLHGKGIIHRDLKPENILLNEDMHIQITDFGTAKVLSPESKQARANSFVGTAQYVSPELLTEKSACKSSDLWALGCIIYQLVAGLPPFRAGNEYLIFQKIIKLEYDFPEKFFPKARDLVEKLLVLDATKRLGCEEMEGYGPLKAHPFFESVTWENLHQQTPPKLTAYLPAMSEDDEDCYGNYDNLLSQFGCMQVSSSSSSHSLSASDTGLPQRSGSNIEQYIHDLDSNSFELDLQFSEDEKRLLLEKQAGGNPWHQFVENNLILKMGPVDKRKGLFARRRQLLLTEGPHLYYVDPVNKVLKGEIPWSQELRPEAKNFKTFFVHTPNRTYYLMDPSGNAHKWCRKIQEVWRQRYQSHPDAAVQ
- Protocol: PDK1 kinase assay
- Assay setup: in vitro kinase assay, His6-PDK1 (aa 52-556), PDKtide, P33-ATP
Quantity: IC50 (nM)
Quick reminder: number only, in nM, skip the unit.

Past entries and their recorded results:
* CN(C)CCNc1ccnc2ccc(C#CCNC(=O)c3cncn(Cc4ccc(F)c(F)c4)c3=O)cc12 [I-117] | 1000
* O=C(NCC#Cc1ccc2nccc(-c3cc[nH]c3)c2c1)c1cncn(Cc2ccc(F)c(F)c2)c1=O [II-88] | 19
* CNc1ncnc2ccc(C#CCNC(=O)c3cc(OC)nn(Cc4ccc(F)c(F)c4)c3=O)cc12 [II-59] | 9

Would you kindly look at the next entry?
Query: Give IC50 for the following compound: N[C@H]1CC[C@@H](Nc2cnc3ccc(C#CCNC(=O)c4cncn(Cc5ccc(F)c(F)c5)c4=O)cc3n2)CC1 [I-33]
Reply: 40
